- Test system: methicillin resistant Staphylococcus aureus (MRSA) biofilm
- condition: approximate peptide concentration […] (around 3 μg/ml); compared to untreated samples
Ends that are not written are not given here.
Returns one of label 1 or label 0; label 1 when % Biofilm inhibition is >= 50%.

substance	labelClass
HH2-A4: single substituted HH2 peptide (VQLAIRVAVIRA-NH2)	label 0
1018-G2: single substituted 1018 peptide (VGLIVAVRIWRR-NH2) [Peptide 1018-G2]	label 1
1018-R5: single substituted 1018 peptide (VRLIRAVRIWRR-NH2) [Peptide 1018-R5]	label 0

Hi, just wondering whether 1002-L10: single substituted 1002 peptide (VQRWLIVWRLRK-NH2) [Peptide 1002-L10] shows % Biofilm inhibition of 50% or higher.
label 1

Hi, just wondering whether HH2-G7: single substituted HH2 peptide (VQLRIRGAVIRA-NH2) shows % Biofilm inhibition of 50% or higher.
label 0

Hi, just wondering whether HH2-G6: single substituted HH2 peptide (VQLRIGVAVIRA-NH2) shows % Biofilm inhibition of 50% or higher.
label 0

Hi, just wondering whether HH2-Q9: single substituted HH2 peptide (VQLRIRVAQIRA-NH2) shows % Biofilm inhibition of 50% or higher.
label 0

Hi, just wondering whether 1018-K4: single substituted 1018 peptide (VRLKVAVRIWRR-NH2) [Peptide 1018-K4] shows % Biofilm inhibition of 50% or higher.
label 0

Hi, just wondering whether HH2-L1: single substituted HH2 peptide (LQLRIRVAVIRA-NH2) shows % Biofilm inhibition of 50% or higher.
label 1

Hi, just wondering whether 1018-W2: single substituted 1018 peptide (VWLIVAVRIWRR-NH2) [Peptide 1018-W2] shows % Biofilm inhibition of 50% or higher.
label 1

Hi, just wondering whether HH2-R12: single substituted HH2 peptide (VQLRIRVAVIRR-NH2) shows % Biofilm inhibition of 50% or higher.
label 1

Hi, just wondering whether 1018-K7: single substituted 1018 peptide (VRLIVAKRIWRR-NH2) [Peptide 1018-K7] shows % Biofilm inhibition of 50% or higher.
label 0

Hi, just wondering whether 1018-G9: single substituted 1018 peptide (VRLIVAVRGWRR-NH2) [Peptide 1018-G9] shows % Biofilm inhibition of 50% or higher.
label 1

Hi, just wondering whether 1018-R1: single substituted 1018 peptide (RRLIVAVRIWRR-NH2) [Peptide 1018-R1] shows % Biofilm inhibition of 50% or higher.
label 0

Hi, just wondering whether 1018-W12: single substituted 1018 peptide (VRLIVAVRIWRW-NH2) [Peptide 1018-W12] shows % Biofilm inhibition of 50% or higher.
label 1

Hi, just wondering whether 1018-I1: single substituted 1018 peptide (IRLIVAVRIWRR-NH2) [Peptide 1018-I1] shows % Biofilm inhibition of 50% or higher.
label 1

====

- Test system: LPS-stimulated human peripheral blood mononuclear cells (IL1-β)
- Type: cell-based
- condition: Table 12; cells stimulated with 10 ng/ml LPS; LPS alone 1313 (HH2 derivatives), 1927 (1018 derivatives), 2455 (1002 and hybrid peptides) pg/ml
Ends that are not written are not given here.
# reported IL1β Production; entries follow
Write the value in pg/mL as a bare number.

Below are worked cases with known answers.
substance	IL1β Production [pg/mL]
1018-L1: single substituted 1018 peptide (LRLIVAVRIWRR-NH2) [Peptide 1018-L1]	282
1018-W2: single substituted 1018 peptide (VWLIVAVRIWRR-NH2) [Peptide 1018-W2]	962
HH2-A6: single substituted HH2 peptide (VQLRIAVAVIRA-NH2)	1391
1002-A10: single substituted 1002 peptide (VQRWLIVWRARK-NH2) [Peptide 1002-A10]	127
1018-L12: single substituted 1018 peptide (VRLIVAVRIWRL-NH2) [Peptide 1018-L12]	220

Look up and report measured IL1β Production for this entry: HH2-W1: single substituted HH2 peptide (WQLRIRVAVIRA-NH2)
866

Look up and report measured IL1β Production for this entry: HH2-K1: single substituted HH2 peptide (KQLRIRVAVIRA-NH2)
1423

Look up and report measured IL1β Production for this entry: 1018-L7: single substituted 1018 peptide (VRLIVALRIWRR-NH2) [Peptide 1018-L7]
132
